target: PRKACB (human) (UniProt P22694); assay: split-luciferase competition binding; conditions: compound 10.0 µM
Recorded inhibition values for a group of compounds are listed next.
Hi! Could you send only the number? It should be in %, unit omitted.

compound_structure_string=COc1cc2ncnc(Nc3ccc(Cl)cc3F)c2cc1OC observable=inhibition experimental_result=4

Data point: Cc1ccc(-c2nn(C(C)(C)C)c3ncnc(N)c23)cc1 ; inhibition = 0

Data point: O=C1NC(=O)c2c1c1c3ccccc3[nH]c1c1[nH]c3ccccc3c21 ; inhibition = 20

---

biological target: PRKCE (human); test: split-luciferase competition binding; conditions: compound 10.0 µM
OBSERVABLE: inhibition (%)
Hi! Could you send only the number? It should be in %, unit omitted.

molecule=NC(=O)c1ccc(-c2nc(-c3ccccn3)c(-c3ccc4c(c3)OCO4)[nH]2)cc1 system_tested="PRKCE (human)" observable=inhibition reading_unit=% experimental_result=0
molecule=NC(=O)c1sc(-c2ccsc2)cc1N system_tested="PRKCE (human)" observable=inhibition reading_unit=% experimental_result=0
molecule=O=C1NC(=O)c2c1c1c3ccccc3n3c1c1c2c2ccccc2n1C1CCC3O1 system_tested="PRKCE (human)" observable=inhibition reading_unit=% experimental_result=59
molecule=CN(C)CCCn1cc(C2=C(c3c[nH]c4ccccc34)C(=O)NC2=O)c2ccccc21 system_tested="PRKCE (human)" observable=inhibition reading_unit=% experimental_result=37

Data point: Cc1cc(I)ccc1Nc1c(C(=O)NOCC2CC2)cc(F)c(F)c1F ; inhibition = 9

Data point: CC1=C(O)C(=O)[C@@H]2OC2C1=O (stereo partly specified) ; inhibition = 0

Data point: Cc1ccccc1C(=O)c1ccc(Nc2ccc(Br)cc2N)cc1Cl ; inhibition = 12

Data point: C/C(O)=C(\C#N)C(=O)Nc1cc(Br)ccc1Br ; inhibition = 0

Data point: CC(C)[C@H](CO)Nc1nc(Nc2cc(N)cc(Cl)c2)c2ncn(C(C)C)c2n1 ; inhibition = 6

Data point: O=C1NC(=O)C(c2ccccc2[N+](=O)[O-])=C1Nc1ccc(O)c(Cl)c1 ; inhibition = 4

Data point: Cn1cnc2c(NCc3ccccc3)nc(NCCO)nc21 ; inhibition = 0
